# Lookup of reported pIC50 keyed by entry
# measurement.target: BTK wildtype protein (Homo sapiens (Human))
# method: BTK wildtype HTRF displacement assay
# Format: binding
# run.parameters: 1-hour incubation; read-out: BTK (wt) IC50
pIC50: −log10 of the molar value.

Would you please look over these solved cases?
INSERT INTO assay_data (compound, observed_value) VALUES
  ('COc1ccc(F)cc1C(=O)NCc1ccc(-c2nn(-c3ccccc3CN(C)C(=O)n3cncn3)c3ncnc(N)c23)cc1', '< 6.00'),
  ('CCN(C(=O)n1cncn1)C1CCC(n2nc(-c3ccc(Oc4ccccc4)cc3)c3c(N)ncnc32)C1 (centres unmarked)', '≥ 6.00'),
  ('Cc1[nH]c2c(C(N)=O)cc(F)c(N3CCC4(CC3)CCN4C(=O)n3cncn3)c2c1C', '≥ 6.00'),
  ('COc1ccc(F)cc1C(=O)NCc1ccc(-c2nn([C@@H]3CCC[C@H](N(C)C(=O)n4cncn4)C3)c(N)c2C(N)=O)cc1 (relative stereo)', '≥ 6.00'),
  ('CC1CC(n2nc(-c3ccc(Oc4ccccc4)cc3)c3c(N)ncnc32)CC(C)N1C(=O)n1cncn1 (centres unmarked)', '≥ 6.00'),
  ('COc1ccc(C)cc1C(=O)NCc1ccc(-c2nn(C3CCCC(N(C)C(=O)n4cnnn4)C3)c3ncnc(N)c23)cc1 (centres unmarked)', '≥ 6.00'),
  ('CN(CCC1CCNc2c(-c3ccc(Oc4ccccc4)cc3)c(C(N)=O)nn21)C(=O)n1cncn1 (centres unmarked)', '< 6.00'),
  ('COc1ccc(F)cc1C(=O)NCc1ccc(-c2nn(C3CCCCN(C(=O)n4cncn4)C3)c(N)c2C(N)=O)cc1 (centres unmarked)', '≥ 6.00'),
  ('COc1ccc(F)cc1C(=O)NCc1ccc(-c2nn(C3CCC3N(C)C(=O)n3cncn3)c3ncnc(N)c23)cc1 (centres unmarked)', '≥ 6.00'),
  ('COc1ccc(F)cc1C(=O)NCc1ccc(-c2nn(C[C@@H]3C[C@H](F)CN3C(=O)n3cncn3)c3ncnc(N)c23)cc1', '≥ 6.00');

Need pIC50, item COc1ccc(F)cc1C(=O)NCc1ccc(-c2nn(C[C@@H]3C[C@@H](O)CN3C(=O)n3cncn3)c3ncnc(N)c23)cc1
< 6.00

Same for COc1ccc(F)cc1C(=O)NCc1ccc(-c2nn(C(CC(F)F)CN(C)C(=O)n3cncn3)c3ncnc(N)c23)cc1 (centres unmarked)
< 6.00

---

Each item that follows carries a reported IC50.
# measurement.target: BTK C481S protein (Homo sapiens (Human), UniProt Q06187, C481S)
# Sequence (Q06187 2-659 C481S): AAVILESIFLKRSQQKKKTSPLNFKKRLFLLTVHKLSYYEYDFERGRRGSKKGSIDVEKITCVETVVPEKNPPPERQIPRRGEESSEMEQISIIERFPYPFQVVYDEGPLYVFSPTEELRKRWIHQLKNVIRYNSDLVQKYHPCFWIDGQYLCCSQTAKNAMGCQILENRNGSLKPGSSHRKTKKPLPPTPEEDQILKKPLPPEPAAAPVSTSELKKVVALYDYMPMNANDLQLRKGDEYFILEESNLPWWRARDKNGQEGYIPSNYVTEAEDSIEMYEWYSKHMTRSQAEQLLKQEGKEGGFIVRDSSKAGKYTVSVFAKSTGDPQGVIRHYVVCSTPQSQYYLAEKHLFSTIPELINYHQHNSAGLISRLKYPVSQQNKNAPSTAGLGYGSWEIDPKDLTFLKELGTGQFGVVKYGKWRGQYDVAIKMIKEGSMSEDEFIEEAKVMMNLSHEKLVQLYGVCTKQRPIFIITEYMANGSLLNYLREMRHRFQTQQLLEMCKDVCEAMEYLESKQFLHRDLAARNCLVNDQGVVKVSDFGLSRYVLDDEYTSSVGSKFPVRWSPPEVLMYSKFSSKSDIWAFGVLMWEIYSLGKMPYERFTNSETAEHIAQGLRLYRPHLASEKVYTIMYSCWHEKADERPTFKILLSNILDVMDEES
# method: BTK C481S HTRF displacement assay
# Assay type: binding
# run.parameters: 1-hour incubation

Examples with their reported IC50 follow.
INSERT INTO assay_data (molecule, measured_property, observed_value) VALUES
  ('COc1ccc(C)cc1C(=O)NCc1ccc(-c2nn(CC3CCCCN3C(=O)n3cncn3)c3ncnc(N)c23)cc1 (stereo not shown)', 'IC50', '> 1000 nM'),
  ('CC(C1CCNc2c(C(N)=O)c(-c3ccc(Oc4ccccc4)cc3)nn21)N(C)C(=O)n1cncn1 (stereo not shown)', 'IC50', '≤ 1000 nM'),
  ('COc1ccc(F)cc1C(=O)NCc1ccc(-c2nn(C(C)C3CCN(C(=O)n4cncn4)C3)c3ncnc(N)c23)cc1 (stereo not shown)', 'IC50', '≤ 1000 nM');

Form field: reported IC50 of CNc1c(C(N)=O)c(-c2ccc(Oc3ccccc3)cc2)nn1C[C@@H]1CCCCN1C(=O)n1cncn1
> 1000 nM

---

# measurement.target: BTK C481S protein (Homo sapiens (Human), UniProt Q06187, C481S)
# method: BTK C481S HTRF displacement assay
# Assay type: binding
# run.parameters: 1-hour incubation
# Protocol: The ability of a compound to bind BTK wildtype or BTK C481S proteins was measured using an HTRF displacement assay. […] Test compounds were prepared as 10 mM stock solutions in DMSO (Fisher cat #BP231-100). […] After a 1-hour incubation at room temperature, the HTRF signal was measured using SPARK plate reader (Tecan) using the TR fluorescence mode. The HTRF ratio is calculated for DMSO, no protein control and compound samples using the following equation: HTRF ratio=Emmision665/Emmision620×10^4. […]
pIC50: −log10 of the molar value.
Reported pIC50 values follow for various molecules

Example entries and their recorded answers appear below.
INSERT INTO results (molecule, measurement_target, observed_value) VALUES
  ('COc1ccc(F)cc1C(=O)NCc1ccc(-c2nn(CCCN(C(=O)n3cncn3)C3CC3)c3ncnc(N)c23)cc1', 'BTK C481S protein (Homo sapiens (Human), UniProt Q06187, C481S)', '≥ 6.00'),
  ('CC(C)[C@@H](C1CCNc2c(C(N)=O)c(-c3ccc(Oc4ccccc4)cc3)nn21)N(C)C(=O)n1cncn1 (stereo partly shown)', 'BTK C481S protein (Homo sapiens (Human), UniProt Q06187, C481S)', '< 6.00'),
  ('CN(C(=O)n1cncn1)[C@@H]1CCC[C@@H](n2nc(-c3ccc(Oc4ccccc4)cc3)c(C(N)=O)c2N)C1', 'BTK C481S protein (Homo sapiens (Human), UniProt Q06187, C481S)', '≥ 6.00');

Item COc1ccc(F)cc1C(=O)NCc1ccc(-c2nn(CC3CCCC3N(C)C(=O)n3cncn3)c(N)c2C(N)=O)cc1 (stereo not shown) has what recorded pIC50?
≥ 6.00

---

# measurement.target: BTK C481S protein (Homo sapiens (Human), UniProt Q06187, C481S)
# method: BTK C481S HTRF displacement assay
# run.parameters: 1-hour incubation
measured.property: IC50

Below: 8 molecules and their reported IC50.
INSERT INTO assay_data (molecule, observed_value) VALUES
  ('COc1ccc(F)cc1C(=O)NCc1ccc(-c2nn(C[C@H]3CCCC[C@H]3CN(C)C(=O)n3cncn3)c3ncnc(N)c23)cc1', '≤ 1 µM'),
  ('COc1ccc(F)cc1C(=O)NCc1ccc(-c2nn(C3(CCN(C)C(=O)n4cncn4)CC3)c3ncnc(N)c23)cc1', '> 1 µM'),
  ('CC(C)[C@H](C1CCNc2c(C(N)=O)c(-c3ccc(Oc4ccccc4)cc3)nn21)N(C)C(=O)n1cncn1 (stereo partly shown)', '> 1 µM'),
  ('COc1ccc(F)cc1C(=O)NCc1ccc(-c2nn(C[C@H]3CCCC[C@@H]3CN(C)C(=O)n3cncn3)c3ncnc(N)c23)cc1', '≤ 1 µM'),
  ('NC(=O)c1c(-c2ccc(Oc3ccccc3)cc2)nn(C2CCCC3C2CCN3C(=O)n2cncn2)c1N (stereo not shown)', '≤ 1 µM'),
  ('COc1ccc(F)cc1C(=O)NCc1ccc(-c2nn(C(C)CN(C(=O)n3cncn3)C3CC3)c3ncnc(N)c23)cc1 (stereo not shown)', '≤ 1 µM'),
  ('COc1ccc(F)cc1C(=O)NCc1ccc(-c2nn(C[C@@H]3CCC[C@H]3CN(C)C(=O)n3cncn3)c3ncnc(N)c23)cc1', '≤ 1 µM'),
  ('NC(=O)c1c(-c2ccc(Oc3ccccc3)cc2)nn2c1NCCC2C1CCN(C(=O)n2cncn2)CC1 (stereo not shown)', '≤ 1 µM');

What value of IC50 on BTK C481S protein (Homo sapiens (Human), UniProt Q06187, C481S) does COc1ccc(F)cc1C(=O)NCc1ccc(-c2nn(C(C)CC3CCCN3C(=O)n3cncn3)c3ncnc(N)c23)cc1 (stereo not shown) [Compound 279] have?
> 1 µM

Thanks! And COc1ccc(F)cc1C(=O)NCc1ccc(-c2nn(C(CC(F)F)CN(C)C(=O)n3cncn3)c3ncnc(N)c23)cc1 (stereo not shown) ?
> 1 µM

---

pIC50: −log10 of the molar value.
BTK wildtype protein (Homo sapiens (Human), UniProt Q06187) data, read-out pIC50
Sequence (Q06187 2-659): as the sequence (Q06187 2-659 C481S) above, with S480C counted along it

Examples from the recorded data:
INSERT INTO measurements (compound, measured_property, observed_value) VALUES
  ('COc1nn(C)cc1Nc1nc(N2CCCC3(CCN3C(=O)n3cncn3)C2)nc2c1ncn2C (stereo not drawn)', 'pIC50', '< 6.00'),
  ('COc1ccc(F)cc1C(=O)NCc1ccc(-c2nn(C[C@H]3CCCC[C@H]3CN(C)C(=O)n3cncn3)c3ncnc(N)c23)cc1', 'pIC50', '≥ 6.00'),
  ('CN(C(=O)n1cncn1)[C@@H]1CCCC[C@H](n2nc(-c3ccc(Oc4ccccc4)cc3)c(C(N)=O)c2N)C1', 'pIC50', '≥ 6.00'),
  ('CC1(C)CC(n2nc(-c3ccc(Oc4ccccc4)cc3)c3c(N)ncnc32)CCN1C(=O)n1cncn1 (stereo not drawn)', 'pIC50', '≥ 6.00'),
  ('COc1ccc(F)cc1C(=O)NCc1ccc(-c2nn(CC3CCCCC3N(C)C(=O)n3cncn3)c3ncnc(N)c23)cc1 (stereo not drawn)', 'pIC50', '≥ 6.00');

Would you mind telling me what pIC50 value was observed for COc1ccc(F)cc1C(=O)NCc1ccc(-c2nn(CC3CCC3N(C)C(=O)n3cncn3)c3ncnc(N)c23)cc1 (stereo not drawn) ?
≥ 6.00

Try this compound next: COc1ccc(F)cc1C(=O)NCc1ccc(-c2nn(C(CC3CCCCC3)CN(C)C(=O)n3cncn3)c3ncnc(N)c23)cc1 (stereo not drawn)
< 6.00

Lookup COc1ccc(F)cc1C(=O)NCc1ccc(-c2nn(C[C@@H]3C[C@@H](C)CCN3C(=O)n3cnnc3)c(N)c2C(N)=O)cc1
≥ 6.00

Okay, and CN(CCC1CNc2c(C(N)=O)c(-c3ccc(Oc4ccccc4)cc3)nn2C1)C(=O)n1cncn1 (stereo not drawn) ?
< 6.00
